test: Prodrug stability in freshly withdrawn porcine intestinal fluid; assay type: in vitro ADME; conditions: porcine intestinal fluid pH 6.8, 37° C., 3 hours; in % (unit assumed)
Measure Name: Prodrug remaining at 3 h

The following molecules have reported results that may help.
N=C(NC(=O)Cc1c(Cl)cccc1Cl)NC(=O)OCCNC(=O)CC[C@H](N)C(=O)O | 81.26
CNCC(=O)N[C@H](C(=O)O)[C@@H](C)OC(=O)NC(=N)NC(=O)Cc1c(Cl)cccc1Cl | 95.04

P = CC(C)[C@H](N)C(=O)NCCOC(=O)NC(=N)NC(=O)Cc1c(Cl)cccc1Cl
Q = CNCC(=O)N[C@@H](CCC(=O)NC(=N)NC(=O)Cc1c(Cl)cccc1Cl)C(=O)O
R = CC(C)[C@@H](N)C(=O)N[C@@H](CCC(=O)NC(=N)NC(=O)Cc1c(Cl)cccc1Cl)C(=O)O
Rank entries according to their Prodrug remaining at 3 h, from the largest number down. Answer by naming the labels in the order asked.
R, Q, P
(R: 91.2, Q: 48.9, P: 13.8)

---

assay: Prodrug stability in simulated intestinal fluid; details: 37° C., pH 6.8, HPLC
Measure Name: % prodrug remaining following incubation for 2 h in simulated intestinal fluid pH 6.8 (%)

N=C(NC(=O)CC[C@H](NC(=O)c1ccc(C(=O)O)cc1)C(=O)O)NC(=O)Cc1c(Cl)cccc1Cl [Compound 60] | 97
O=C(O)CC[C@@H]1N=C(NC(=O)Cc2c(Cl)cccc2Cl)NC1=O [Compound 37, Guanfacine-(S)-Glutamic Cyclic Adduct] | 110
CC(C)[C@H](N)C(=O)N[C@H](CCC(=O)NC(=N)NC(=O)Cc1c(Cl)cccc1Cl)C(=O)O [Compound 32] | 84
CC(C)[C@H](N)C(=O)NCCC(=O)NC(=N)NC(=O)Cc1c(Cl)cccc1Cl [Compound 2, Guanfacine (β-Alanine-(S)-Valine) Amide] | 89
CNCC(=O)NCCOC(=O)NC(=N)NC(=O)Cc1c(Cl)cccc1Cl [Compound 71] | 89
CNCC(=O)N[C@@H](COC(=O)NC(=N)NC(=O)Cc1c(Cl)cccc1Cl)C(=O)O [Compound 61] | 96
CCC(C)[C@@H](N)C(=O)NCCCC(=O)NC(=N)NC(=O)Cc1c(Cl)cccc1Cl (stereo partly drawn) [Compound 50, Guanfacine (GABA-(R)-Isoleucine) Amide] | 81

---

test: Pharmacokinetics in rat hepatic portal and tail veins after oral administration; type: in vivo; conditions: hepatic portal vein plasma, po, 1 mg/kg, read-out: Hepatic portal vein Prodrug AUC
Measure Name: AUC (µg·h/mL)

The following molecules have reported results that may help.
CNCC(=O)N[C@@H](COC(=O)NC(=N)NC(=O)Cc1c(Cl)cccc1Cl)C(=O)O | 0.0518
C[C@@H](N)C(=O)N[C@@H](CCC(=O)NC(=N)NC(=O)Cc1c(Cl)cccc1Cl)C(=O)O | 0.0435
CNCC(=O)N[C@H](C(=O)O)[C@@H](C)OC(=O)NC(=N)NC(=O)Cc1c(Cl)cccc1Cl | 0.0665

P = CC(C)[C@H](N)C(=O)NCCC(=O)NC(=N)NC(=O)Cc1c(Cl)cccc1Cl [Compound 2, Guanfacine (β-Alanine-(S)-Valine) Amide]
Q = CC(C)[C@@H](N)C(=O)N[C@@H](CCC(=O)NC(=N)NC(=O)Cc1c(Cl)cccc1Cl)C(=O)O
API: POST /compare with P and Q ; response names the item with higher AUC. To answer, give the label that identifies your chosen option.
Q
(Q: 0.061 µg·h/mL, P: 0.0192 µg·h/mL)
